System: NCI/ADR-RES ovarian
experiment.summary: NCI-60 one-dose screen, 48 h
study.conditions: 10 µM unless noted
Compounds without any hit were thinned out: in the full panel of roughly 83,000, 20% have a hit. Calls of active or inactive are those of the source. Rule for the calls: active = growth percent below 10; inactive = the rest.
Outcome field: choose from active, inactive

These recorded examples may help you get a feel for the data.
| compound | group |
| --- | --- |
| COc1c(F)ccc(C(=O)Nc2ccc3nc(NC(=O)C4CCCN(S(=O)(=O)c5ccc(Cl)cc5)C4)sc3c2)c1F (stereo not drawn) | inactive |
| COc1c(F)ccc(C(=O)Nc2ccc3nc(NC(=O)C4CCCN(S(=O)(=O)c5ccc(C#N)cc5)C4)sc3c2)c1F (stereo not drawn) | inactive |
| CCN(CC)CCOc1ccc(Nc2ncc3cc(-c4ccc(O)c(C#N)c4)c(=O)n(C)c3n2)cc1 | inactive |

query: Identify the outcome logged in this assay for the compound shown: COc1cc2c(c(OC)c1OC)C(=O)CC(c1cccc(NC(=O)c3cc(NC(=O)[C@H](CO)NC(=O)OC(C)(C)C)ccc3Cl)c1)O2 (stereo partly drawn)
result: inactive

query: Identify the outcome logged in this assay for the compound shown: COc1ccc(/C=C/c2nc3ccccc3n3c(-c4ccc(Cl)cc4)nnc23)cc1
result: inactive

query: Identify the outcome logged in this assay for the compound shown: CN(C)c1nc(NCCNS(=O)(=O)c2ccc(C(=O)/C=C/c3ccc(F)cc3)cc2)nc(Nc2ccc(F)cc2)n1
result: active

query: Identify the outcome logged in this assay for the compound shown: COc1ccc(-c2ccc(SCC(=O)Nc3ccc(S(N)(=O)=O)cc3Br)nn2)cc1
result: inactive

query: Identify the outcome logged in this assay for the compound shown: CC1CN(c2oc(-c3ccc([N+](=O)[O-])cc3)nc2C#N)CC(C)O1 (stereo not drawn)
result: inactive

###

Tested on: SK-MEL-2 melanoma
experiment.summary: NCI-60 one-dose screen, 48 h
study.conditions: 10 µM unless noted
About 83,000 compounds went through this panel and 20% of them were active in at least one assay; those are over-represented in the sample as a whole. The source made the active and inactive calls. The calls were made as follows: active = growth percent below 10; inactive = the rest.
Outcome field: choose from active, inactive

| compound | group |
| --- | --- |
| CSc1ccc(C(=O)Nc2ccc3nnn(/C(C#N)=C/c4ccccn4)c3c2)cc1 | active |
| CC(C)Sc1nc(NCCc2c[nH]c3ccccc23)c(C#N)c(-c2ccc(F)cc2)n1 | inactive |
| O=c1oc2ccc(Br)cc2cc1C1=CSc2nc3sc4c(c3c(=O)n2N=C1)CCCC4 | inactive |
| COc1cc(-c2nc3ccc(C)cc3[nH]2)ccc1OCc1nnc(-c2ccc(Br)cc2)o1 | inactive |
| Cc1ccccc1[C@H]1C(C(=O)c2ccc(Cl)cc2)C2(N[C@@H]1c1ccccc1)C(=O)Nc1ccc(Cl)cc12 (some centres undefined) | active |
| Cc1ccc(NCC(=O)Cn2cc(COc3ccc(C=Nc4cnc5ccccc5c4)cc3)nn2)cc1 | inactive |

query: Identify the outcome logged in this assay for the compound shown: COc1c(F)ccc(C(=O)Nc2ccc3nc(NC(=O)C4CCCN(S(=O)(=O)c5cccc(Cl)c5)C4)sc3c2)c1F (centres undefined)
result: inactive

query: Identify the outcome logged in this assay for the compound shown: COc1ccccc1C(=O)NN1C(=O)/C(=C/C2=Cc3ccccc3OC2)SC1=S
result: inactive

query: Identify the outcome logged in this assay for the compound shown: O=C(Cn1c(/C=C/c2cccc([N+](=O)[O-])c2)nc2ccccc2c1=O)Nc1ccccc1
result: inactive

###

Tested on: NCI-H23 lung
experiment.summary: NCI-60 one-dose screen, 48 h
study.conditions: 10 µM unless noted
The panel holds about 83,000 compounds, 20% with a hit somewhere; the sample as a whole holds those more often. Active and inactive are the calls of the source. The calls were made as follows: active = growth percent below 10; inactive = the rest.
Outcome field: choose from active, inactive

These recorded examples may help you get a feel for the data.
| compound | measured.on | group |
| --- | --- | --- |
| CCCSc1nc(NCCc2c[nH]c3ccccc23)c(C#N)c(-c2ccc(F)cc2)n1 | NCI-H23 lung | inactive |
| Nc1n[nH]c2cccc(C#Cc3cccc(NC(=O)c4cccc(Cl)c4)c3)c12 | NCI-H23 lung | inactive |
| Cc1nc(Nc2ccccn2)sc1C(=O)CC(SCC(=O)Nc1ccc(Cl)cc1)c1ccccc1F (stereo not given) | NCI-H23 lung | active |
| CCCCSc1nc(NCCc2c[nH]c3ccccc23)c(C#N)c(-c2ccc(F)cc2)n1 | NCI-H23 lung | inactive |
| S=c1c2ccccc2nc2n1CCc1c-2[nH]c2ccccc12 | NCI-H23 lung | inactive |
| Cc1cc2c(cc1Cl)C(=O)/C(=C/c1ccccc1)O2 | NCI-H23 lung | active |
| Nc1nnc(-c2c[nH]c3ncc(Br)cc23)c(-c2c[nH]c3ccc(F)cc23)n1 | NCI-H23 lung | inactive |
| O=C(/C=C/c1ccc(-c2ccccc2)cc1)c1nc2ccccc2n1Cc1ccc(Br)cc1 | NCI-H23 lung | inactive |

query: Identify the outcome logged in this assay for the compound shown: COc1ccc(C2(SCCNCc3cc(N(C)C)ccn3)c3ccccc3C=Cc3ccccc32)cc1
result: inactive

query: Identify the outcome logged in this assay for the compound shown: COc1ccc(-c2nc3cc(C)ccc3n2CC(=O)N=Nc2c(O)[nH]c3ccc(Br)cc23)cc1
result: active

###

Test system: T-47D breast
experiment.summary: NCI-60 one-dose screen, 48 h
study.conditions: 10 µM unless noted
Compounds without any hit were thinned out: in the full panel of roughly 83,000, 20% have a hit. Calls of active or inactive are those of the source. Rule for the calls: active = growth percent below 10; inactive = the rest.
Outcome field: choose from active, inactive

These recorded examples may help you get a feel for the data.
| compound | group |
| --- | --- |
| Cc1cc(N=C2NC(=O)CS2)n[nH]1 | inactive |
| CCCn1cc(-c2nc(Nc3ccc(C(=O)NCCCCNc4cccc5c4C(=O)N(C4CCC(=O)NC4=O)C5=O)cc3)nc3[nH]ccc23)cn1 (stereo not drawn) | active |

query: Identify the outcome logged in this assay for the compound shown: Cc1cccc(-c2nc(Nc3ccc(C)c(S(N)(=O)=O)c3)c3ccccc3n2)c1
result: inactive

query: Identify the outcome logged in this assay for the compound shown: CC(=O)Nc1cccc(Nc2nc(N[C@H]3CCCc4ccccc43)c3ccccc3n2)c1
result: inactive

query: Identify the outcome logged in this assay for the compound shown: CCC(C)(C)c1ccc(OCCCCN2CCN(c3ccncc3)CC2)cc1
result: active

query: Identify the outcome logged in this assay for the compound shown: N/C(=N\c1nc2ccccc2s1)NC(=O)Nc1ccc(Cl)cc1Cl
result: active

query: Identify the outcome logged in this assay for the compound shown: CSc1ccccc1NC(=O)c1ccc2nn(/C(C#N)=C/c3ccccn3)nc2c1
result: active

query: Identify the outcome logged in this assay for the compound shown: N#Cc1c(-c2cccc3ccccc23)cc(-c2cccc(OCC(=O)O)c2)[nH]c1=O
result: inactive

query: Identify the outcome logged in this assay for the compound shown: CCCSc1nc(NCCc2c[nH]c3ccccc23)c(C#N)c(-c2ccc(F)cc2)n1
result: inactive

query: Identify the outcome logged in this assay for the compound shown: CC(/C=C1\SC(=S)N(CCCC(=O)NC(CC(C)C)C(=O)O)C1=O)=C\c1ccccc1 (stereo not drawn)
result: inactive

query: Identify the outcome logged in this assay for the compound shown: COc1ccc(/C=C/c2n(Cc3ccc4ccccc4c3)c3ccccc3[n+]2Cc2ccc3ccccc3c2)cc1
result: active

query: Identify the outcome logged in this assay for the compound shown: CC(=O)Nc1ccc(-n2cnc3cc(-c4ccc(O)cc4)ccc32)cc1C(F)(F)F
result: inactive

query: Identify the outcome logged in this assay for the compound shown: COc1ccc(C2(SCCNCc3cc(N(C)C)ccn3)c3ccccc3C=Cc3ccccc32)cc1
result: inactive

query: Identify the outcome logged in this assay for the compound shown: CCCCCCCCc1ccc(C(=O)Nc2ccc(C)cc2C(=O)O)cc1C
result: inactive

query: Identify the outcome logged in this assay for the compound shown: O=C(Nc1ccccc1)N1CCN(c2cc(-c3cn(-c4ccccc4)nc3-c3cccc(O)c3)ccn2)CC1
result: inactive

query: Identify the outcome logged in this assay for the compound shown: CC12CC[C@@H]3[C@]4(C)COC(c5cn[nH]c5-c5ccc(Br)cc5)O[C@@H]4CC[C@@]3(C)[C@@H]1CC(C1=CCOC1=O)O2 (stereo partly drawn)
result: inactive

query: Identify the outcome logged in this assay for the compound shown: Cc1ccc([C@H]2C(C(=O)c3ccc(Cl)cc3)C3(N[C@@H]2c2ccccc2)C(=O)Nc2ccccc23)cc1 (stereo partly drawn)
result: inactive

query: Identify the outcome logged in this assay for the compound shown: CN1CCN(c2ccc3c(c2)nc(NNC(=O)c2cnccn2)c2cccn23)CC1
result: active

query: Identify the outcome logged in this assay for the compound shown: COC(OC)C1=C(C)OC(N)=C(C#N)C12C(=O)Nc1ccccc12 (stereo not drawn)
result: inactive

query: Identify the outcome logged in this assay for the compound shown: CCCCOc1ccc(NC(=O)c2sc3nc(C)ccc3c2N)cc1
result: inactive

query: Identify the outcome logged in this assay for the compound shown: COc1c(F)ccc(C(=O)Nc2ccc3nc(NC(=O)C4CCCN(S(=O)(=O)c5ccc(Cl)cc5)C4)sc3c2)c1F (stereo not drawn)
result: inactive

query: Identify the outcome logged in this assay for the compound shown: COc1ccc2[nH]c(O)c(N=NC(=O)COc3ccc(NC(=O)Nc4ccccc4)cc3)c2c1
result: inactive
